The measurements presented in this section are drawn from ChEMBL document CHEMBL3351223.

target: Induced myeloid leukemia cell differentiation protein Mcl-1 (Homo sapiens)
pIC50: −log10 of the molar value.
assay endpoint: pIC50

Sample answers from the record:
- chem smiles: "C[C@@H]1CN([C@@H](C)C(=O)O)C(=O)c2cccc(NS(=O)(=O)Cc3ccccc3)c2O[C@@H]1CN(C)C(=O)Nc1ccc(C(F)(F)F)cc1"
  pIC50: "< 4.30"
- chem smiles: "C[C@@H]1CN([C@@H](C)C(=O)O)C(=O)c2cccc(NS(=O)(=O)c3ccc(F)cc3)c2O[C@@H]1CN(C)C(=O)Nc1ccc2ccccc2c1"
  pIC50: "< 4.60"
- chem smiles: "C[C@@H]1CN([C@@H](C)C(=O)O)C(=O)c2cccc(NS(=O)(=O)CCc3ccccc3)c2O[C@@H]1CN(C)C(=O)Nc1ccc(C(F)(F)F)cc1"
  pIC50: "< 4.30"
- chem smiles: "C[C@@H]1CN([C@@H](C)C(=O)O)C(=O)c2cccc(NS(=O)(=O)c3ccc(F)cc3)c2O[C@@H]1CN(C)C(=O)Nc1ccccc1"
  pIC50: "< 4.30"

Proceeding to the next compound to report its pIC50.
What is its pIC50 for Induced myeloid leukemia cell differentiation protein Mcl-1 (Homo sapiens)? Entry: C[C@@H]1CN([C@@H](C)C(=O)O)C(=O)c2cccc(NS(=O)(=O)c3ccc(F)cc3)c2O[C@@H]1CN(C)C(=O)Nc1cccc(C(F)(F)F)c1
< 4.60

====

molecular target: Induced myeloid leukemia cell differentiation protein Mcl-1 (Homo sapiens)
assay endpoint: ΔTm (°C)

- chem smiles: "C[C@@H]1CN([C@@H](C)C(=O)O)C(=O)c2cccc(NS(=O)(=O)c3ccc(F)cc3)c2O[C@@H]1CN(C)C(=O)Nc1cccc(C(F)(F)F)c1"
  assay endpoint: "ΔTm"
  assay result: 0.2

[1] C[C@@H]1CN([C@@H](C)C(=O)O)C(=O)c2cccc(NS(=O)(=O)CCc3ccccc3)c2O[C@@H]1CN(C)C(=O)Nc1ccc(C(F)(F)F)cc1
[2] C[C@@H]1CN([C@@H](C)C(=O)O)C(=O)c2cccc(NS(=O)(=O)c3ccc(F)cc3)c2O[C@@H]1CN(C)C(=O)Nc1ccccc1
[3] C[C@@H]1CN([C@@H](C)C(=O)O)C(=O)c2cccc(NS(=O)(=O)Cc3ccccc3)c2O[C@@H]1CN(C)C(=O)Nc1ccc(C(F)(F)F)cc1
[4] C[C@@H]1CN([C@@H](C)C(=O)O)C(=O)c2cccc(NS(=O)(=O)c3ccc(F)cc3)c2O[C@@H]1CN(C)C(=O)Nc1cccc2ccccc12
[5] C[C@@H]1CN([C@@H](C)C(=O)O)C(=O)c2cccc(NS(=O)(=O)c3ccc(F)cc3)c2O[C@@H]1CN(C)C(=O)Nc1ccc2ccccc2c1
Please list these in order of increasing ΔTm. Thank you! # answer = labels listed in requested order
4, 2, 1, 5, 3

====

Heads up, these compounds all have ΔTm values measured for Induced myeloid leukemia cell differentiation protein Mcl-1 (Homo sapiens, UniProt Q07820).
assay endpoint: ΔTm (°C)

Example entries begin here.
- chem smiles: "C[C@@H]1CN([C@@H](C)C(=O)O)C(=O)c2cccc(NS(=O)(=O)c3cccc(F)c3)c2O[C@@H]1CN(C)C(=O)Nc1ccc(C(F)(F)F)cc1"
  ΔTm, °C: 3.4
- chem smiles: "COc1ccc(NC(=O)N(C)C[C@H]2Oc3c(NS(=O)(=O)c4ccc(F)cc4)cccc3C(=O)N([C@@H](C)C(=O)O)C[C@H]2C)cc1"
  ΔTm, °C: 0.2

[I] C[C@@H]1CN([C@@H](C)C(=O)O)C(=O)c2cccc(NS(=O)(=O)c3ccc(F)cc3)c2O[C@@H]1CN(C)C(=O)Nc1ccccc1C(F)(F)F
[II] C[C@@H]1CN([C@@H](C)C(=O)O)C(=O)c2cccc(NS(=O)(=O)c3ccccc3)c2O[C@@H]1CN(C)C(=O)Nc1ccc(C(F)(F)F)cc1
[III] C[C@@H]1CN([C@@H](C)C(=O)O)C(=O)c2cccc(NS(=O)(=O)c3ccccc3F)c2O[C@@H]1CN(C)C(=O)Nc1ccc(C(F)(F)F)cc1
Write the entries in order, lowest recorded ΔTm first. Ranked list of labels, please, in the requested order.
I, III, II
(I: 0.2 °C, III: 1.9 °C, II: 2.8 °C)

====

Here we list compounds with their recorded IC50 when tested on Induced myeloid leukemia cell differentiation protein Mcl-1 (Homo sapiens, UniProt Q07820).
Sequence (Q07820 whole entry): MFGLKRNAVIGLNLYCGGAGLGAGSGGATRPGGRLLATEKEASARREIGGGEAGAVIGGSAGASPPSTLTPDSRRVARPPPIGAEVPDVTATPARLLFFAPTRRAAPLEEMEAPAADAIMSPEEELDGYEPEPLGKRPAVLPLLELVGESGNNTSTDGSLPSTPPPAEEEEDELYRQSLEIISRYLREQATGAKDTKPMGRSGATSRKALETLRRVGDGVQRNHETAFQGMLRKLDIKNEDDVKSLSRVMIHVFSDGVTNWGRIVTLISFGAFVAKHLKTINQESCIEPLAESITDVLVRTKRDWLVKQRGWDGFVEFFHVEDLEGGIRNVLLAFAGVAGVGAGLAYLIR
assay endpoint: IC50 (µM)

- chem smiles: "C[C@@H]1CN([C@@H](C)C(=O)O)C(=O)c2cccc(NS(=O)(=O)c3cccc(F)c3)c2O[C@@H]1CN(C)C(=O)Nc1ccc(C(F)(F)F)cc1"
  assay endpoint: "IC50"
  assay result: 4.1

[A] C[C@@H]1CN([C@@H](C)C(=O)O)C(=O)c2cccc(NS(=O)(=O)c3ccccc3)c2O[C@@H]1CN(C)C(=O)Nc1ccc(C(F)(F)F)cc1
[B] C[C@@H]1CN([C@@H](C)C(=O)O)C(=O)c2cccc(NS(=O)(=O)c3ccccc3F)c2O[C@@H]1CN(C)C(=O)Nc1ccc(C(F)(F)F)cc1
Which one would you say has the larger IC50 value: A , or B ? Field: selected label. Fill in the label of the entry you choose.
B
(B: 21.3 µM, A: 10 µM)

====

Reported IC50 by item:
target: Induced myeloid leukemia cell differentiation protein Mcl-1 (Homo sapiens, UniProt Q07820)

- chem smiles: "C[C@@H]1CN([C@@H](C)C(=O)O)C(=O)c2cccc(NS(=O)(=O)c3ccc(F)cc3)c2O[C@@H]1CN(C)C(=O)Nc1ccccc1C(F)(F)F"
  IC50: "> 50 µM"

Kindly state the measured IC50 obtained for C[C@@H]1CN([C@@H](C)C(=O)O)C(=O)c2cccc(NS(=O)(=O)c3ccc(F)cc3)c2O[C@@H]1CN(C)C(=O)Nc1cccc2ccccc12 with Induced myeloid leukemia cell differentiation protein Mcl-1 (Homo sapiens, UniProt Q07820).
> 50 µM

Param readout= IC50; system= Induced myeloid leukemia cell differentiation protein Mcl-1 (Homo sapiens, UniProt Q07820); entry= COc1ccc(NC(=O)N(C)C[C@H]2Oc3c(NS(=O)(=O)c4ccc(F)cc4)cccc3C(=O)N([C@@H](C)C(=O)O)C[C@H]2C)cc1 ; returns value.
> 50 µM
